Hey, just so you know, these numbers are from PubChem BioAssay (NCI).

- Test system: PC-3 prostate
- Assay Method Text: NCI-60 one-dose screen, 48 h (100 = growth as untreated, 0 = no growth, -100 = all killed)
- Test Context: 10 µM unless noted
- Method: Growth inhibition of the PC-3 human tumor cell line is measured as a screen for anti-cancer activity. Cells are grown in 96 well plates and exposed to the test compound for 48 hours. Compounds are tested at a single concentration, which is 10^-5 M for most compounds. The reported endpoint is percent growth (GI% or GIPRCNT), where numbers from 0 - 100% represent growth inhibition, and numbers from -100% - 0 represent cell death. For example, a value of 40 represents 60% growth inhibition. […]
Compounds without any hit were thinned out: in the full panel of roughly 83,000, 20% have a hit.
Quick list: growth per entry.
Measure: growth (%)

INSERT INTO assay_data (compound, measure, uom, measured_value) VALUES
  ('CCOC(=O)c1cnn2c(-c3ccc(Cl)cc3)nc(NCc3ccccc3)nc12', 'growth', '%', 63),
  ('Cc1cc(Cl)nc(N(CCCNc2ccnc3cc(Cl)ccc23)Cc2ccccn2)n1', 'growth', '%', 54.2),
  ('CCN(CC)N=Nc1nn(C(=O)Nc2ccc(Cc3ccccc3)cc2)c2ccc(Cl)cc12', 'growth', '%', 69.6),
  ('Clc1ccc2[nH]c3c(NCCCN4CCOCC4)ncnc3c2c1', 'growth', '%', 75.6),
  ('CN(C)CCOC(=O)Nc1ccc(Cl)cc1', 'growth', '%', 65.4),
  ('C=C(C=O)C1CCC2(C(=O)O)CCC3(C)C(CCC4C5(C)CCC(O)C(C)(C)C5CCC43C)C12 (stereo unspecified)', 'growth', '%', 20.4),
  ('CCCCCCNCc1cc(C(C)(C)C)cc(CNCCCCCC)c1O', 'growth', '%', 6.77),
  ('O=C(CCc1nc(-c2cccc(Cl)c2)no1)Nc1ccccn1', 'growth', '%', 97.4),
  ('CCCCC1COc2cccc3c(SCC(=O)N(C)c4cccc(Cl)c4)cc[n+]1c23 (stereo unspecified)', 'growth', '%', 106),
  ('CCCCCCNC(=O)c1cc(NCc2cc(O)ccc2O)ccc1O', 'growth', '%', 42.6),
  ('c1ccc2c(c1)ncn2-c1nc2ccccc2n2c1nc1ccccc12', 'growth', '%', 72.4);
